System: M14 melanoma
Test: NCI tumour cell line growth inhibition, 48 h
Reported TGI is given for each of the following molecules.

The cases that follow already have their TGI on record.
In plain terms, COC(=O)C1ON2C(C1C(=O)OC)C(C)(C)N(O)C2(C)C (configuration not stated) has a documented TGI of > 10 µM

In plain terms, CCCCN(CCCC)C(=O)C(=O)C(C)C(=O)CC (configuration not stated) has a documented TGI of > 100 µM

In plain terms, COc1cc2c(cc1C)NC(=O)/C2=C/c1c(Cl)n(-c2ccccc2)c2ccccc12 has a documented TGI of 63.1 µM

In plain terms, CCC1(N=[N+]=[N-])C(=O)c2ccccc2N(c2ccccc2)C1=O (configuration not stated) has a documented TGI of > 100 µM

In plain terms, CCCSc1ccc2[nH]c(N3C(=O)/C(=C/c4cc(OC)c(OC)c(OC)c4)N=C3c3ccccc3)cc2c1 has a documented TGI of > 30.8 µM

In plain terms, COc1ccc2c(c1)cn1c3ccc(O)cc3[nH]c(=O)c21 has a documented TGI of 1.21 µM

In plain terms, CC1(C)N=C(C(=O)c2ccccc2)N(O)C1(O)c1ccccc1 (configuration not stated) has a documented TGI of > 100 µM

In plain terms, C[C@@H]1OC(=O)C[C@H]2CC(=O)N(CCC3CN(S(=O)(=O)C(F)(F)F)c4ccccc43)C[C@@H]21 (some centres not stated) has a documented TGI of > 100 µM

In plain terms, COC(=O)c1ccccc1NC(=O)C(=O)CC(=O)CC(c1ccccc1)c1c(O)c2ccccc2oc1=O (configuration not stated) has a documented TGI of > 100 µM

In plain terms, CC(=O)c1ccc2c(c1)N(CCCN1CCN(CCO)CC1)c1ccccc1C2 has a documented TGI of 28.3 µM

Others:
In plain terms, CC(=O)NC(CCCNC(=O)NCCCl)C(=O)NCc1ccccc1 (configuration not stated) has a documented TGI of > 100 µM

In plain terms, COc1ccc(C2c3cc4c(cc3OC(O)(CO)C2C(=O)O)OCO4)cc1 (configuration not stated) (tested in a mixture with another compound) has a documented TGI of 29.1 µM

In plain terms, COC1C(O)C(C)OC(OC2CC3CCC4C(CCC5(C)C(C6=CC(=O)OC6)CCC45O)C3(O)C(OC(C)=O)C2)C1O (configuration not stated) has a documented TGI of 5.5 µM

In plain terms, Nc1cc(-c2ccc(Cl)cc2)nn1-c1nc2ccccc2nc1-c1ccccc1 has a documented TGI of > 100 µM

In plain terms, Clc1ccc(C=NC23CC4CC(CC(C4)C2)C3)cc1Cl has a documented TGI of > 10 µM

In plain terms, CC1C=C[C@H](Sc2ccccc2)CC[C@@]1(C)O (some centres not stated) has a documented TGI of > 100 µM

In plain terms, COC(=O)CCc1cccnc1/C=N/O has a documented TGI of > 100 µM

In plain terms, CC(=O)[C-](C(C)=O)c1ccccc1.CC(=O)[C-](C(C)=O)c1ccccc1.CC[O-].CC[O-].[Ti+4] has a documented TGI of > 100 µM

###

System: OVCAR-3 ovarian
Experiment: NCI tumour cell line growth inhibition, 48 h
measurement kind: TGI

In plain terms, Cc1cc(N(CCC#N)CCC#N)ccc1N=Nc1cccc(Cl)c1 has a documented TGI of > 100 µM

In plain terms, CN(C)CCc1ccnc2nc(-c3ccc4ccccc4c3)cn12 has a documented TGI of 72 µM

In plain terms, CC1(C)CC(=O)C(=[N+]=[N-])C(=O)C1 has a documented TGI of > 100 µM

In plain terms, Cc1ccc(C2C3=C(N=c4s/c(=C/c5ccc(Br)cc5)c(=O)n42)c2ccc4ccccc4c2OCC3)cc1 (stereo unspecified) has a documented TGI of > 100 µM

In plain terms, CCN(CC)c1ccc2cc(C(=O)Nc3nc(C45CC6CC(CC(C6)C4)C5)cs3)c(=O)oc2c1 has a documented TGI of > 100 µM

Others:
In plain terms, C/C1=C\C/C=C(\C)[C@H]2CC(CC/C(C)=C/CC1)[C@](C)(C=O)O2 has a documented TGI of > 100 µM

In plain terms, Cc1cc(=O)[nH]c(/N=C(\N)Nc2ccc(Cl)cc2)n1 has a documented TGI of > 100 µM

In plain terms, Nc1cc(-c2ccc(Cl)cc2)nn1-c1nc2ccccc2nc1-c1ccccc1 has a documented TGI of > 100 µM

In plain terms, Cn1c2ccccc2n2c3ccccc3c(=O)c(C#N)c12 has a documented TGI of > 100 µM

In plain terms, CCOc1ccc2ccc3cccnc3c2n1 has a documented TGI of 58.4 µM

In plain terms, CC(C)(C)[Si](C)(C)OCC1OC(n2cnc3c(N)ncnc32)CC1OS(C)(=O)=O (stereo unspecified) has a documented TGI of > 100 µM

Each recorded value in this set is attributed to PubChem BioAssay (NCI).
